- Target Desc: rhSYK (Homo sapiens, UniProt P43405)
- Experimental Setup: read-out: rhSYK Activity; class symbol; where two forms are listed, one symbol per form
pIC50: −log10 of the molar value.
Experimental Readout: pIC50

Some compounds with known pIC50 results, for comparison:
Cc1cc(Nc2nccc(C(F)(F)F)n2)cc(-c2cnc(C(C)(O)c3cccc(C(=O)O)c3)s2)c1 (single isomer, unassigned) [Example 4A-55] | > 7.00
Cc1cc(Nc2nccc(C(F)(F)F)n2)cc(-c2cnc(C(C)(O)c3noc(C)n3)s2)c1 (stereo not shown) | > 7.00

Notebook entry, rhSYK (Homo sapiens, UniProt P43405) assay: pIC50 of O=C(c1ccoc1)c1ncc(-c2cccc(Nc3nccc(C(F)(F)F)n3)c2)s1 = ?
6.00 to 7.00

Query the reported pIC50 for rhSYK (Homo sapiens, UniProt P43405); item: OC1(c2ncc(-c3cccc(Nc4nccc(C(F)(F)F)n4)c3)s2)CC2COCC(C1)N2Cc1ccccc1 (stereo not shown)
5.00 to 6.00
